These measurements were taken from patent US9737535B2.

system: BT-474; experiment: Anti-proliferation assay (ATPLite), Chalice synergy score; format: cell-based; conditions: Compound 1 in combination with the named second active agent, 72 h, mean of n = 3 experiments in triplicate
Structures can show the parent of a compound that is named as a salt.
Readout Kind: Synergy score
The response must contain the number and no unit.

Worked cases, Synergy score given:
-- ask Under BT-474: Synergy score value of OCCn1cc(-c2ccc3c(c2)CC/C3=N\O)c(-c2ccncc2)n1 [GDC-0879] ?
-- reply 0.46

-- ask Under BT-474: Synergy score value of COc1cc2nccc(Oc3ccc(NC(=O)C4(C(=O)Nc5ccc(F)cc5)CC4)cc3)c2cc1OC [XL184] ?
-- reply 1.51

-- ask Under BT-474: Synergy score value of COc1ccc(-c2cc3nccn3c(Nc3ncccc3C(N)=O)n2)cc1OC.Cl [BAY61-3606 Hydrochloride] ?
-- reply 0.04

-- ask Under BT-474: Synergy score value of C[C@]12CC[C@@H]3c4ccc(O)cc4C[C@@H](CCCCCCCCC[S+]([O-])CCCC(F)(F)C(F)(F)F)[C@H]3[C@@H]1CC[C@@H]2O (stereo partly shown) [Fulvestrant] ?
-- reply 1.37

-- ask Under BT-474: Synergy score value of Nc1ccn([C@@H]2O[C@H](CO)[C@@H](O)C2(F)F)c(=O)n1 [Gemcitabine Hydrochloride] ?
-- reply 0.17

***
-- ask Under BT-474: Synergy score value of CC(=O)c1c(C)c2cnc(Nc3ccc(N4CCNCC4)cn3)nc2n(C2CCCC2)c1=O [PD-0332991] ?
-- reply 0.31

-- ask Under BT-474: Synergy score value of CCN(CCO)CCCOc1ccc2c(Nc3cc(CC(=O)Nc4cccc(F)c4)[nH]n3)ncnc2c1 [AZD1152-HQPA (Barasertib)] ?
-- reply 1.51
